Ref: patent US12171229B2

# Test system: Myzus persicae
# test-method-notes: Myzus persicae oral test
# Assay type: in vivo
# applied-conditions: 120 h, 4 ppm, after 5 days
assay-endpoint: mortality at 4 ppm (%)

| mol | assay-endpoint | quantitative-readout |
| --- | --- | --- |
| Cc1nc([C@H](C)NC(=O)c2cc(Cl)cc(OC(F)(F)F)c2)n(-c2ccc(C#N)cn2)n1 | mortality at 4 ppm | 100 |
| C[C@H](NC(=O)c1cncc(C(F)(F)F)c1)c1ncnn1-c1ccc(C#N)cn1 | mortality at 4 ppm | 100 |
| C[C@H](NC(=O)c1cc(Cl)cc(OC(F)(F)F)c1)c1ncnn1-c1ccc(C#N)cn1 | mortality at 4 ppm | 100 |
| C[C@H](NC(=O)c1cc(Cl)cc(C(F)(F)F)c1)c1ncnn1-c1ccc(C(=O)NC2(C#N)CC2)cn1 | mortality at 4 ppm | 90 |

----------
Measured pest or weed control at 80 µg/disc, 250 g/ha by item
# System: Diabrotica balteata
# test-method-notes: Diabrotica balteata spray test
# Assay type: in vivo
# applied-conditions: Diabrotica balteata, in Triticum aestivum, 168 h, 80 μg/well (=250 g/ha); after 7 days; larvae on wheat seeds; read-out: efficacy (seedlings grown up)
assay-endpoint: pest or weed control at 80 µg/disc, 250 g/ha (%)

| mol | readout-units | quantitative-readout |
| --- | --- | --- |
| C[C@H](NC(=O)c1cc(Cl)cc(C(F)(F)F)c1)c1ncnn1-c1ccc(-n2ccc(C(F)(F)F)n2)cn1 | % | 100 |
| CNC(=O)c1ccc(-n2ncnc2[C@H](C)NC(=O)c2cc(Cl)cc(C(F)(F)F)c2)nc1 | % | 100 |
| C[C@H](NC(=O)c1cc(Cl)cc(Cl)c1)c1ncnn1-c1ccc(C#N)cn1 | % | 100 |
| C[C@H](NC(=O)c1cc(Cl)cc(C(F)(F)F)c1)c1ncnn1-c1ccc(-n2cccn2)cn1 | % | 100 |
| CC[C@H](NC(=O)c1cc(C(F)(F)F)cc(C(F)(F)F)c1)c1ncnn1-c1ccc(NC(=O)C2CC2)cn1 | % | 100 |
| C[C@H](NC(=O)c1cc(Cl)cc(C(F)(F)F)c1)c1ncnn1-c1ncc(Br)s1 | % | 100 |
| COc1cc(C(=O)N[C@@H](C)c2ncnn2-c2ncc(F)cc2F)cc(C(F)(F)F)c1 | % | 100 |

----------
// values below are reported mortality at 4 ppm
# System: Myzus persicae
# test-method-notes: Myzus persicae oral test
# Format: in vivo
# applied-conditions: 120 h, 4 ppm, after 5 days

| mol | mortality at 4 ppm [%] |
| --- | --- |
| C[C@H](NC(=O)c1cc(Cl)cc(C(F)(F)F)c1)c1ncnn1-c1cc(C#N)ccn1 | 100 |
| C[C@H](NC(=O)c1cc(Cl)cc(C(F)(F)F)c1)c1ncnn1-c1ccc(NC(=O)C2(Cl)CC2)cn1 | 90 |
| C[C@H](NC(=O)c1cc(Cl)cc(OC(F)F)c1)c1ncnn1-c1ccc(C#N)cn1 | 100 |
| C[C@H](NC(=O)c1cc(Cl)cc(C(F)(F)F)c1)c1ncnn1-c1ccc(NC(=O)C2(C#N)CC2)cn1 | 100 |

----------
# Test system: Myzus persicae
# test-method-notes: Myzus persicae oral test
# Format: in vivo
# applied-conditions: 120 h, 4 ppm, after 5 days

| compound | mortality at 4 ppm (%) |
| --- | --- |
| C[C@H](NC(=O)c1cc(Cl)cc(C(F)(F)F)c1)c1ncnn1-c1ccc(NC(=O)c2ccc(F)cc2)cn1 | 100 |
| C[C@H](NC(=O)c1cncc(I)c1)c1ncnn1-c1ccc(C#N)cn1 | 100 |
| C[C@H](NC(=O)c1cc(C(F)(F)F)cc(C(F)(F)F)c1)c1ncnn1-c1ncc(F)cc1F | 100 |
| Cc1cc(C(=O)N[C@@H](C)c2ncnn2-c2ccc(C#N)cn2)cc(C(F)(F)F)c1 | 100 |
| C[C@H](NC(=O)c1cc(Cl)cc(C(F)(F)F)c1)c1ncnn1-c1ccc(NC(=O)C2CC2)cn1 | 100 |
| C[C@H](NC(=O)c1cc(Cl)cc(C(F)(F)F)c1)c1ncnn1C1CCS(=O)(=O)C1 (single isomer, unassigned) | 100 |
| C[C@H](NC(=O)c1cc(Cl)cc(C(F)(F)F)c1)c1ncnn1-c1ccc([N+](=O)[O-])cn1 | 100 |
| C[C@H](NC(=O)c1cc(Cl)cc(OC(F)(F)F)c1)c1ncnn1-c1ccc([N+](=O)[O-])cn1 | 90 |
| Cc1nc([C@H](C)NC(=O)c2cc(Cl)cc(Cl)c2)n(-c2ccc(C#N)cn2)n1 | 100 |
| C[C@H](NC(=O)c1cc(C(F)(F)F)cc(C(F)(F)F)c1)c1ncnn1-c1ccc(C#N)cn1 | 100 |
| C[C@H](NC(=O)c1cc(Cl)cc(Br)c1)c1ncnn1-c1ccc(C#N)cn1 | 100 |
| C[C@H](NC(=O)c1cc(Cl)cc(C(F)(F)F)c1)c1ncnn1-c1ccc(NC(=O)C(F)(F)F)cn1 | 90 |
| CC(c1ncnn1-c1ccc(C#N)cn1)N(CC1CC1)C(=O)c1cc(Cl)cc(C(F)(F)F)c1 (stereo not drawn) | 90 |
| C[C@H](NC(=O)c1cc(Cl)cc(C(F)(F)F)c1)c1ncnn1-c1ccc(C(=O)NC2CC2)cn1 | 100 |
| C[C@H](NC(=O)c1cc(F)c(Cl)c(F)c1)c1ncnn1-c1ccc(C#N)cn1 | 100 |
